# System: pdr5 ypt1^ts cells
# test_description: microbe, parasite or virus in culture
# Type: cell-based, yeast
# settings: Table 2; 12.5 μM compound; 37° C.; background (0 μM) 0.058
Binary classification by optical density, ypt1-ts, 12.5, with 0.4 as an inclusive lower bound for 1 (yes); all other cases are 0 (no).

>>> label("CC(=O)Nc1ccc(OC(=O)c2ccccc2O)cc1 [ACETAMINOSALOL, reference compound]")
"0 (no)"
>>> label("CC(C)N(C(=O)CCl)c1ccccc1")
"0 (no)"
>>> label("COc1ccc2c(c1)OCC(Cc1ccc(OC)c(O)c1)C2=O (stereo not shown)")
"0 (no)"
>>> label("CC(C)C1=CC2=CCC3[C@](C)(CCC[C@]3(C)C(=O)O)C2CC1 (stereo partly shown)")
"1 (yes)"
>>> label("C/C=C(\\C)C(=O)O[C@@H]1c2c(ccc3ccc(=O)oc23)OC(C)(C)[C@@H]1OC(C)=O")
"0 (no)"
>>> label("C[n+]1cc2c3c(ccc2c2ccc4cc5c(cc4c21)OCO5)OCO3.O=S(=O)([O-])O [SANGUINARINE SULFATE]")
"0 (no)"

Answer whether optical density, ypt1-ts, 12.5 of CC1(C)C2CC(=O)O[C@]3(C)C4=CC(=O)O[C@@H](c5ccoc5)[C@]4(C)CCC3[C@@]2(C)C=C[C@H]1O (stereo partly shown) is greater than or equal to 0.4.
1 (yes)

Answer whether optical density, ypt1-ts, 12.5 of CC/C(=C(/CC)c1ccc(O)cc1)c1ccc(O)cc1 [DIETHYLSTILBESTROL, reference compound] is greater than or equal to 0.4.
0 (no)

Answer whether optical density, ypt1-ts, 12.5 of `COc1ccc2c(c1)O[C@H]1c3ccc(OC)cc3OC[C@@H]21` is greater than or equal to 0.4.
0 (no)

Answer whether optical density, ypt1-ts, 12.5 of `CC1(C)C(=O)C=C[C@@]2(C)C1=C(O)C(=O)[C@]1(C)[C@@H]2CC[C@@]2(C)[C@H](c3ccoc3)C[C@H]3O[C@]321` is greater than or equal to 0.4.
1 (yes)

Answer whether optical density, ypt1-ts, 12.5 of C=C1[C@H]2CC[C@@]3(C)[C@H](c4ccoc4)OC(=O)C[C@]13O[C@H]1C[C@@H](O)C(C)(C)[C@H](CC(=O)OC)[C@]12C [3alpha-HYDROXY-3- DEOXY[…] METHYL ESTER2] is greater than or equal to 0.4.
1 (yes)

Answer whether optical density, ypt1-ts, 12.5 of `O=c1c2ccccc2oc2ccccc12` is greater than or equal to 0.4.
1 (yes)

Answer whether optical density, ypt1-ts, 12.5 of `CC(=O)O[C@@H]1C[C@@]2(C)[C@H](c3ccoc3)C[C@H]3O[C@]32[C@]2(C)C(=O)C(O)=C3C(C)(C)C(=O)C=C[C@]3(C)[C@@H]12` is greater than or equal to 0.4.
1 (yes)

Answer whether optical density, ypt1-ts, 12.5 of CC(=O)O[C@@H]1c2c(ccc3ccc(=O)oc23)OC(C)(C)[C@@H]1OC(=O)CC(C)C [DIHYDROSAMIDIN] is greater than or equal to 0.4.
0 (no)

Answer whether optical density, ypt1-ts, 12.5 of `COc1ccc(CC(=O)c2ccc(O)cc2O)cc1` is greater than or equal to 0.4.
0 (no)
